# System: A549
# Test name: Antiproliferative activity against human A549 cells after 72 hrs by MTT assay
# Type: functional, cell-based
# Study conditions: Homo sapiens, A549, 72 h; read-out: IC50
The label label 1 is reserved for IC50 strictly under 2000 nM; label 0 covers values equal to or above it.

Line notation	Assigned category
COc1cc(/C=N/NC(=O)Nc2ccc(Oc3ccnc4[nH]ccc34)c(F)c2)cc(OC)c1OC	label 0
COc1ccc(/C=N/NC(=O)Nc2ccc(Oc3ccnc4[nH]ccc34)cc2)c(OC)c1OC	label 0
O=C(N/N=C/c1cccn1CCCN1CCCCC1)Nc1ccc(Oc2ccnc3[nH]ccc23)cc1	label 1
CCN(CC)CCCn1cccc1/C=N/NC(=O)Nc1ccc(Oc2ccnc3[nH]ccc23)c(F)c1	label 1
O=C(N/N=C/c1cccn1CCCN1CCOCC1)Nc1ccc(Oc2ccnc3[nH]ccc23)cc1	label 0

A record lists `O=C(N/N=C/c1ccc(O)cc1)Nc1ccc(Oc2ccnc3[nH]ccc23)c(F)c1` . Is its IC50 below 2000 nM?
label 0

Please determine if `CC(C)(C)c1cc(/C=N/NC(=O)Nc2ccc(Oc3ccnc4[nH]ccc34)c(F)c2)cc(C(C)(C)C)c1O` is below 2000 nM in terms of IC50.
label 0

Given the entry `O=C(N/N=C/c1cccn1CCCN1CCCCC1)Nc1ccc(Oc2ccnc3[nH]ccc23)c(F)c1` , would its reported IC50 be below 2000 nM?
label 0

Dear colleague, could you confirm whether IC50 of `O=C(N/N=C/c1ccccc1)Nc1ccc(Oc2ccnc3[nH]ccc23)c(F)c1` falls below 2000 nM? Thanks.
label 0

# TODO verify IC50 < 2000 nM strictly for this compound: `COc1ccc(/C=N/NC(=O)Nc2ccc(Oc3ccnc4[nH]ccc34)c(F)c2)c(OC)c1OC`
label 1

IC50 under 2000 nM? Item: `COc1ccc(/C=N/NC(=O)Nc2ccc(Oc3ccnc4[nH]ccc34)cc2)cc1`
label 0

Lab note: IC50 threshold 2000 nM. Does this compound come in strictly under it? `O=C(N/N=C/c1ccc(Br)cc1)Nc1ccc(Oc2ccnc3[nH]ccc23)c(F)c1`
label 1

Quick check: does `O=C(N/N=C/c1ccc(Br)cc1)Nc1ccc(Oc2ccnc3[nH]ccc23)cc1` have IC50 under 2000 nM?
label 1

----------
# System: A549
# Test name: Antiproliferative activity against human A549 cells after 72 hrs by MTT assay
# Type: functional, cell-based
# Study conditions: Homo sapiens, A549, 72 h; read-out: IC50
Metric: IC50 (µM)
Numeric answer only, unit µM assumed.

Some solved cases for reference:
Line notation	Metric	Unit of measurement	Value
O=C(N/N=C/c1ccc(O)cc1Br)Nc1ccc(Oc2ccnc3[nH]ccc23)cc1	IC50	µM	5.08
O=C(N/N=C/c1cccn1CCN1CCOCC1)Nc1ccc(Oc2ccnc3[nH]ccc23)c(F)c1	IC50	µM	3.41
CN(C)CCCn1cccc1/C=N/NC(=O)Nc1ccc(Oc2ccnc3[nH]ccc23)cc1	IC50	µM	2.66

What measured IC50 goes with `O=C(N/N=C/c1ccc(Cl)c(Cl)c1)Nc1ccc(Oc2ccnc3[nH]ccc23)c(F)c1` ?
2.65

Name the reported IC50 value associated with the compound `O=C(N/N=C/c1ccc([N+](=O)[O-])cc1)Nc1ccc(Oc2ccnc3[nH]ccc23)cc1`
2.1

Using the record for `O=C(N/N=C/c1cccc(Br)c1)Nc1ccc(Oc2ccnc3[nH]ccc23)c(F)c1` , report its IC50.
2.22

Return reported IC50; argument: `O=C(N/N=C/c1cc(Br)c(O)c(Br)c1)Nc1ccc(Oc2ccnc3[nH]ccc23)c(F)c1`
16.2

Given `O=C(N/N=C/c1ccc(O)cc1)Nc1ccc(Oc2ccnc3[nH]ccc23)cc1` , state its recorded IC50.
1.91

What does the record list as IC50 for `O=C(N/N=C/c1cccc([N+](=O)[O-])c1)Nc1ccc(Oc2ccnc3[nH]ccc23)c(F)c1` ?
3.64
